target: UniProt:P52333
Sequence (P52333 822-1111 limits assumed): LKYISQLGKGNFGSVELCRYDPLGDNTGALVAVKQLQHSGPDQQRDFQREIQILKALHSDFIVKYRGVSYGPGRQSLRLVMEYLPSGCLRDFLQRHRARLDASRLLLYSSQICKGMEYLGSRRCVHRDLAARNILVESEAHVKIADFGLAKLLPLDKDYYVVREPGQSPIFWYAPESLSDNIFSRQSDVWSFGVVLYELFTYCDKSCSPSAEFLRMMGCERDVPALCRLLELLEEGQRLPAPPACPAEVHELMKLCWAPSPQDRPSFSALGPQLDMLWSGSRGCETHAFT
Measured IC50 values are reported for all entries that follow.

**Query** Can you share its IC50? I mean this compound: C=CC(=O)Nc1ccc(Sc2nc(Nc3ccc(OCCN4CCOCC4)cc3)ncc2C)cc1 [Compound 290]
**Result** < 100 nM

**Query** I am curious: what IC50 value has been reported for C=CC(=O)Nc1ccc(Sc2ccnc(Nc3ccc(S(N)(=O)=O)c(OC)c3)n2)cc1 [Compound 374] ?
**Result** < 100 nM

**Query** What value of IC50 has been reported for the following compound? C=CC(=O)Nc1ccc(Sc2nc(Nc3cccc(N4CCOCC4)c3)ncc2C)cc1 [Compound 237]
**Result** < 100 nM

New cases:
**Query** # query: IC50 of entry N#CCNCc1cccc(Sc2ccnc(Nc3ccc(N4CCOCC4)cc3)n2)c1 [Compound 68]
**Result** < 500 nM

**Query** Item Cc1cc(N)ccc1Sc1nc(Nc2ccc(N3CCOCC3)cc2)ncc1C [Compound 162] has what recorded IC50?
**Result** < 100 nM

**Query** What value of measured IC50 is listed for C=CC(=O)Nc1ccc(Sc2nc(Nc3ccc(O)cc3)ncc2C)cc1 [Compound 282] ?
**Result** < 100 nM

**Query** So what's the measured IC50 for this one? C=CC(=O)NCc1cccc(Sc2ccnc(Nc3ccc(N4CCOCC4)cc3)n2)c1 [Compound 112]
**Result** < 100 nM

**Query** If you can, please state the reported IC50 value of C=CC(=O)Nc1ccc(Sc2nc(Nc3ccc(N4CCC(CO)CC4)cc3)ncc2C)cc1 [Compound 286] .
**Result** < 100 nM

---

biological target: BaF3 TELJAK2 cells (BafT_J2) (Homo sapiens); construct: fused on or other part: TEL (ETV6) N-terminal part, coding nucleotides 1-487, serves as the oligomerising partner; It is fused through a Sal I site to the JAK2 kinase domain and expressed from pTRE2 in BaF3 cells bearing pTET-off; P41212 (Transcription factor ETV6); experiment: Cellular screening, BaF3 TEL:JAK2 cells, Alamar Blue; assay type: cell-based; conditions: 40 hr, read-out: BafT_J2 IC50_nM
Sequence (O60674 whole entry, change not shown, the tested form may be a part): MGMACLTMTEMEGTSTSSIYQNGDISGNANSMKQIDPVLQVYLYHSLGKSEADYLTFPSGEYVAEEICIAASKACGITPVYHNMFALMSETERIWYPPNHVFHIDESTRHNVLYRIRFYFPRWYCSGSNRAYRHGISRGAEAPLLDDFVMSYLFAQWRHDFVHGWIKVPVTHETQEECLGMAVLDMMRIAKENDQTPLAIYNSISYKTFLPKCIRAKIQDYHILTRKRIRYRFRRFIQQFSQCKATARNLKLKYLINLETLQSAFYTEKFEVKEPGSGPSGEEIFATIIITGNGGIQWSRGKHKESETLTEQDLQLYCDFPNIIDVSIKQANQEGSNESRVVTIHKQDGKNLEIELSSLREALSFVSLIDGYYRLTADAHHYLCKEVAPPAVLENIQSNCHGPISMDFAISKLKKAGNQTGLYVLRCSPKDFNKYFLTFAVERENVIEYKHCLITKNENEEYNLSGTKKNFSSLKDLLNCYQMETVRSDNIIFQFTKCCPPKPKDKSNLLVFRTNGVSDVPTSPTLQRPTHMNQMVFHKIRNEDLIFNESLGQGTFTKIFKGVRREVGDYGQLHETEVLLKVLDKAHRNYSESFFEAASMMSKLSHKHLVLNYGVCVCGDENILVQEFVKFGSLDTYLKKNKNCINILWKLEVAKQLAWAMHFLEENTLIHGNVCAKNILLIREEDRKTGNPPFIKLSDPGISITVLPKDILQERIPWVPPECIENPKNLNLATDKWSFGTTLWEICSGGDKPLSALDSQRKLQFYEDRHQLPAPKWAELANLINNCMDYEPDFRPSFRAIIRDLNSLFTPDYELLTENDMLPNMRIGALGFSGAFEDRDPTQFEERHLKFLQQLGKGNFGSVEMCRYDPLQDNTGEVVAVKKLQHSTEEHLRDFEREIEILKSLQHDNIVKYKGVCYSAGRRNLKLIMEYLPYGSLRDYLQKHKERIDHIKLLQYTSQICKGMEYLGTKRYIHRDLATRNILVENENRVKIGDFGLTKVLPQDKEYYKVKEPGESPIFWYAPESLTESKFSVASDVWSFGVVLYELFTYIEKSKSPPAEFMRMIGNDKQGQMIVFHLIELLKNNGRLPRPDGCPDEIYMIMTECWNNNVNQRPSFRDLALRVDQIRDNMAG
Below is a list of entries, each paired with its recorded GI50 value.

**Query** Need GI50, item C=CC(=O)Nc1ccc(Sc2ccnc(Nc3cccc(O)c3)n2)cc1
**Result** < 5 µM

---
**Query** Reported GI50, compound c1cn(Cc2ccc(Sc3ccnc(Nc4ccc(N5CCOCC5)cc4)n3)cc2)cn1 : ____
**Result** < 20 µM

**Query** # GI50 lookup, item C=CC(=O)Nc1ccc(Sc2nc(Nc3ccc(N4CCCC(O)C4)cc3)ncc2C)cc1 (stereo not shown)
**Result** < 20 µM

**Query** Look up GI50: C=CC(=O)Nc1ccc(Sc2ccnc(Nc3ccc(S(=O)(=O)NCCC(C)C)cc3)n2)cc1
**Result** < 20 µM

---

Listing of recorded inhibition at 0.5 µM by entry.
molecular target: Blk(m) (Mus musculus, UniProt P16277); construct: purchased Upstate Biotechnology (Dundee, UK), KinaseProfiler service; assay: Upstate KinaseProfiler enzyme assay, Blk; format: biochemical; conditions: 500 nM compound; read-out: Percent inhibition at 500 nM Blk(m)
Sequence (P16277 whole entry): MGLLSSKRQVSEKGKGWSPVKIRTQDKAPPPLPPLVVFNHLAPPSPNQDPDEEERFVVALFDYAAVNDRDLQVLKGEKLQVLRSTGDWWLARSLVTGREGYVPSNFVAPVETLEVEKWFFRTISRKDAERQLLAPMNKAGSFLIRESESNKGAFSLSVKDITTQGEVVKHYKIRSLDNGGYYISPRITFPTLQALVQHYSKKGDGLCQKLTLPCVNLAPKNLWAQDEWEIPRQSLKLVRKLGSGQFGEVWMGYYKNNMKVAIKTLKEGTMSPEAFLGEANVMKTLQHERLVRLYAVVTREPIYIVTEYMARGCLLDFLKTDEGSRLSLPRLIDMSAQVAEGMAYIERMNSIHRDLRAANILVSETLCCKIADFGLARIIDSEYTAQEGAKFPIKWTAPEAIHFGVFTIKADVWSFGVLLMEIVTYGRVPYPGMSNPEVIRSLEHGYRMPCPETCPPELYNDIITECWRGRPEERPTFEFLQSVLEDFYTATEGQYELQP
Quick reminder: number only, in %, skip the unit.

**Query** Entry C=CC(=O)Nc1ccc(Sc2ccnc(Nc3ccc(S(N)(=O)=O)c(OC)c3)n2)cc1 [Compound 374] has what inhibition at 0.5 µM?
**Result** 96

Please look at the following compound next.
**Query** What does the record list as inhibition at 0.5 µM for C=CC(=O)Nc1ccc(Sc2nc(Nc3ccc(CNS(C)(=O)=O)cc3)ncc2C)cc1 [Compound 294] ?
**Result** 37

---

The following compounds each carry a recorded IC50 for UniProt P52333.

**Query** Report IC50 for C=CC(=O)Nc1ccc(Sc2ccnc(Nc3ccc(S(=O)(=O)NCCC(C)C)cc3)n2)cc1 [Compound 371] please.
**Result** < 100 nM

**Query** Entry Nc1ccc(Sc2ccnc(Nc3ccc(N4CCOCC4)cc3)n2)cc1 [Compound 27] : reported IC50 = ?
**Result** < 1000 nM

**Query** Endpoint output: IC50 of Cc1cnc(Nc2ccc(N3CCOCC3)cc2)nc1Sc1ccc(C(C#N)N2CCOCC2)cc1 (centres unmarked) [Compound 223] . Value?
**Result** < 500 nM

**Query** State the recorded IC50 for this entry: C=CC(=O)Nc1ccc(Sc2nc(Nc3ccc(CNS(C)(=O)=O)cc3)ncc2C)cc1 [Compound 294]
**Result** < 100 nM

**Query** Which IC50 is reported for this compound? CC#CC(=O)Nc1cccc(Sc2ccnc(Nc3cccc(N4CCOCC4)c3)n2)c1 [Compound 232]
**Result** < 100 nM

New cases:
**Query** Recorded IC50 for C=CC(=O)Nc1ccc(Nc2nccc(SC)n2)cc1 [Compound 13] , please?
**Result** < 100 nM

**Query** Query: IC50; subject: C=CC(=O)Nc1ccc(Sc2nc(Nc3ccc(N4CCOCC4)cc3)ncc2C)cc1CC [Compound 260]
**Result** < 100 nM

---

target: BTK(h) (Homo sapiens); construct: purchased Upstate Biotechnology (Dundee, UK), KinaseProfiler service; experiment: Upstate KinaseProfiler enzyme assay, BTK; type: biochemical; conditions: 500 nM compound; read-out: Percent inhibition at 500 nM BTK(h)
Sequence (Q06187 whole entry): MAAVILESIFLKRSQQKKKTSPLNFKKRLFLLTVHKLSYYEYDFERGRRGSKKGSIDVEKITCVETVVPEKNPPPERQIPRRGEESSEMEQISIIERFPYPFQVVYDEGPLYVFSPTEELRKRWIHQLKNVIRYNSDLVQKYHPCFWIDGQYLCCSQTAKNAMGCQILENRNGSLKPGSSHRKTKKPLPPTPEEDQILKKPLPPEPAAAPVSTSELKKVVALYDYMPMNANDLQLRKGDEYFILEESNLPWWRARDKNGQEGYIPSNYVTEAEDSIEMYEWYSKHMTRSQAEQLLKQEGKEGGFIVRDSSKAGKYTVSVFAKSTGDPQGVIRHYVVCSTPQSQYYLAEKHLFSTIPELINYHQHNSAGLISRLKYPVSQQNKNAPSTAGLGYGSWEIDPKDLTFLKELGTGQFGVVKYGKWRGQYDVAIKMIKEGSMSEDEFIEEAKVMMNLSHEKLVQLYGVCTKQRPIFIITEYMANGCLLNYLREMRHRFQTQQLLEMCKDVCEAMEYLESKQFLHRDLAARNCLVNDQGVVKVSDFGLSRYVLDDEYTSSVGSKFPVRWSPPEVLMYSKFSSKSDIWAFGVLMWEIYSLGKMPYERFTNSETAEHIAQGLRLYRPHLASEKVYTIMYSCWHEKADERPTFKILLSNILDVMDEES
Listing of recorded inhibition at 0.5 µM by entry.
Answers without a unit are incomplete; give the number and then its unit.

**Query** Entry C=CC(=O)Nc1ccc(Sc2ccnc(Nc3cccc(C#N)c3)n2)cc1 [Compound 118] has what inhibition at 0.5 µM?
**Result** 100%

**Query** Form field: reported inhibition at 0.5 µM of C=CC(=O)Nc1cccc(Sc2ccnc(Nc3cc(OC)c(OC)c(OC)c3)n2)c1 [Compound 51]
**Result** 100%

**Query** For C=CC(=O)Nc1ccc(Sc2ccnc(Nc3ccc(N4CCS(=O)(=O)CC4)cc3)n2)cc1 [Compound 99] , what is its reported inhibition at 0.5 µM?
**Result** 100%

**Query** Value lookup for inhibition at 0.5 µM; key = C=CC(=O)Nc1ccc(Sc2ccnc(Nc3ccc(S(N)(=O)=O)c(OC)c3)n2)cc1 [Compound 374]
**Result** 96%

**Query** Bench note: what inhibition at 0.5 µM did C=CC(=O)Nc1ccc(Sc2ccnc(Nc3ccc(OC)cc3)n2)cc1 [Compound 74] show?
**Result** 100%

**Query** Recorded inhibition at 0.5 µM for O=C(CCNc1ccccc1)Nc1ccc(Sc2ccnc(Nc3ccccc3)n2)cc1 [Compound 351] , please?
**Result** 100%

**Query** What value of inhibition at 0.5 µM has been reported for the following molecule? C=CC(=O)Nc1ccc(Sc2nc(Nc3ccc(OC)c(NS(C)(=O)=O)c3)ncc2C)cc1 [Compound 293]
**Result** 55%

Next item in the queue.
**Query** // lookup inhibition at 0.5 µM for C/C=C/C(=O)Nc1ccc(Sc2ccnc(Nc3ccc(N4CCOCC4)cc3)n2)cc1 [Compound 59]
**Result** 100%

---

target: Flt 1(h) (Homo sapiens); construct: purchased Upstate Biotechnology (Dundee, UK), KinaseProfiler service; assay: Upstate KinaseProfiler enzyme assay, Flt 1; assay type: biochemical; conditions: 500 nM compound; read-out: Percent inhibition at 500 nM Flt 1(h)
Sequence (P17948 27-1338): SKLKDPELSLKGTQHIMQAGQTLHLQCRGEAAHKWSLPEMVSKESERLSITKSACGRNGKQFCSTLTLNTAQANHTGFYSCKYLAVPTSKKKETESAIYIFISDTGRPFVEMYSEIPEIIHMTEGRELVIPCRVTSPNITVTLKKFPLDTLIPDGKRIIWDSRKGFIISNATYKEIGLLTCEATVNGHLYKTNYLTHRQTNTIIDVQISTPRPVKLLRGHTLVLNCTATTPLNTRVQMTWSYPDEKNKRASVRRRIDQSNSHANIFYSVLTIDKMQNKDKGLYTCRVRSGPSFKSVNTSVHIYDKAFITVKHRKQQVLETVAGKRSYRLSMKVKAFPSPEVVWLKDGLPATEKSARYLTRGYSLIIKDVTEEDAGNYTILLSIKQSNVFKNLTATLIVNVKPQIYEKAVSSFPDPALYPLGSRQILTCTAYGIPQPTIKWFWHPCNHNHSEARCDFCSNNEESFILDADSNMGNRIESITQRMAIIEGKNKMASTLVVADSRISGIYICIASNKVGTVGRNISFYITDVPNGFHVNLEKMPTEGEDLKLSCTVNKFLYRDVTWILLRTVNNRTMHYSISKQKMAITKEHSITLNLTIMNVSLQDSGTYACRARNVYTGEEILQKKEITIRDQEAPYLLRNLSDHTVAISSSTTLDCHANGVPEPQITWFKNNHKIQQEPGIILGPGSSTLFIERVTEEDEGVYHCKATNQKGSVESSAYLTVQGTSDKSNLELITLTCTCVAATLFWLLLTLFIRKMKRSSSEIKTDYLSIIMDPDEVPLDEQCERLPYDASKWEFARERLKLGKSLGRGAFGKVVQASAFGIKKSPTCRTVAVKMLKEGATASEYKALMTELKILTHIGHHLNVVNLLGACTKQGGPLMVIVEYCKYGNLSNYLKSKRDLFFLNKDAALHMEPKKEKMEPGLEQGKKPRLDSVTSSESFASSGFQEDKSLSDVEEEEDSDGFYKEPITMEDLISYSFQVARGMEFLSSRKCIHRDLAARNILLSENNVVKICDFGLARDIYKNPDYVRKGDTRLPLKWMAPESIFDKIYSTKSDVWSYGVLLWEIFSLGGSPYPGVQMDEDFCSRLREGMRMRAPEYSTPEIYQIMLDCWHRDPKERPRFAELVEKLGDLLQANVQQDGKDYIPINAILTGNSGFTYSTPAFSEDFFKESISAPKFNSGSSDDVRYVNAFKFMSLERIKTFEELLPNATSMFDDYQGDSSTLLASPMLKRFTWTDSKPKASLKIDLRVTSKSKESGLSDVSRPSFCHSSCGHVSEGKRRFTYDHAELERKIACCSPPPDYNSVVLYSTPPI
OUTCOME MEASURE: inhibition at 0.5 µM (%)
Please give a number only; it is taken to be in %.

Answered examples (5):
**Query** Given the compound C=CC(=O)Nc1cc(C)c(Sc2nc(Nc3ccc(N4CCOCC4)cc3)ncc2C)c(C)c1 , what is its reported inhibition at 0.5 µM?
**Result** 44

**Query** Quick one: inhibition at 0.5 µM of CC(=O)Nc1ccc(Sc2nc(Nc3ccc(N4CCOCC4)cc3)ncc2C)cc1 ?
**Result** 96

**Query** What does the record list as inhibition at 0.5 µM for C=CC(=O)Nc1ccc(Sc2nc(Nc3ccc(OCCN4CCOCC4)cc3)ncc2C)cc1 ?
**Result** 100

**Query** inhibition at 0.5 µM lookup needed for C=CC(=O)Nc1ccc(Sc2nc(Nc3ccc(N4CCOCC4)c(OC)c3)ncc2C)cc1 , thanks.
**Result** 95

**Query** What value of inhibition at 0.5 µM has been recorded for this entry: C=CC(=O)Nc1ccc(Sc2nc(Nc3cccc(N4CCOCC4)c3)ncc2F)cc1
**Result** 100

Further cases:
**Query** Give its inhibition at 0.5 µM value. Item: C=CC(=O)Nc1ccc(Sc2nc(Nc3ccc(C4CCN(C)CC4)cc3)ncc2C)cc1
**Result** 100

**Query** Quick one: inhibition at 0.5 µM of C=CC(=O)Nc1ccc(Sc2ccnc(Nc3ccc(S(N)(=O)=O)c(OC)c3)n2)cc1 ?
**Result** 100

**Query** Which value of inhibition at 0.5 µM has been reported for C=CC(=O)Nc1ccc(Sc2nc(Nc3ccc(N4CCOCC4)cc3)ncc2-c2ccccc2)cc1 in the records?
**Result** 19
